# System: Vero E6 infected with SARS-CoV-2
# RUN_DESCRIPTION: morphology score (similarity to uninfected cells); higher = more like uninfected cells
# EXPERIMENTAL_CONDITIONS: 24 h
Listing: morphology score of selected molecules
RECORDED_METRIC: morphology score

> print(dat)
                                   molecule  measurement
1  O=C(C(c1ccccc1)c1ccccc1)N1CCN(CC(O)COc2cccc3ncccc23)CC1 (configuration not stated) [dofequidar] (10 µM)         0.14
2  O=C(O)c1ccccc1Nc1cc(Cl)ccc1C(=O)O [lobenzarit] (10 µM)         0.04
3  COc1cccc2c1c(O)c(C(=O)N(C)c1ccc(C(F)(F)F)cc1)c(=O)n2C [tasquinimod] (10 µM)        0.168
4  CC(=O)N1CCC[C@H]1C(=O)N[C@@H](Cc1cnc[nH]1)C(=O)N[C@@H](CO)C(=O)N[C@@H](CS)C(=O)N[C@@H](CC(N)=O)C(N)=O (10 µM)       0.0957
5  Cc1cccc(C)c1OCC(=O)N[C@@H](Cc1ccccc1)[C@@H](O)C[C@H](Cc1ccccc1)NC(=O)[C@H](C(C)C)N1CCCNC1=O [lopinavir] (10 µM)        0.184
6  CCn1ccnc1CC1COc2ccccc2O1 (configuration not stated) [imiloxan] (10 µM)     -0.00924
7  Cc1csc(S(=O)(=O)N(CC(C)C)c2cc3c(cc2OCc2ccc(C(=O)O)cc2)CCC3)n1 (10 µM)      -0.0439

// provenance: the supplement of paper PMC13380429
